Target: T1, Sa GlnR(1-87) (S. aureus, UniProt Q53687 1-87)
T1 chain: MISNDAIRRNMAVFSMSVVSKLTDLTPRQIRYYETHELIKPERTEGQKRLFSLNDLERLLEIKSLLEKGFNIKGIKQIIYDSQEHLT
Test: FP
Where no end group is shown, it is not given here.
measuredAttribute: Kd (µM)
Give just the number in µM; leave the unit off.

// query Suppose we examine the binder fluorescein-KPIGETLPINRGDLSRFIK [fluoresceinated Sa GlnR C-tail peptide] ; what Kd value has been reported?
// result 56

Data provenance: paper PMC9249791
